// values below are reported Bedstraw plant response rating
# Tested on: bedstraw
# methodDescription: Test B pre/postemergence bedstraw
# Format: in vivo, Galium aparine
# measurementParameters: Rate 62 g/ha, Postemergence; scale of 0 to 10 where 0 is no effect and 10 is complete control
Just the number, please.

Known Bedstraw plant response rating results, listed for orientation:
compound: COCC(C)n1c(=O)on(C(=O)N(c2ccc(F)cc2F)C(C)C)c1=O (stereo not shown)
testSystem: bedstraw
reportedValue: 0
//
compound: CCC(C)N(C(=O)n1oc(=O)n(-c2ccccc2C)c1=O)c1ccc(F)cc1 (stereo not shown)
testSystem: bedstraw
reportedValue: 0

Consider the compound COCCOCn1c(=O)on(C(=O)N(c2ccc(F)cc2)C(C)C)c1=O [Compound 258] and give its measured Bedstraw plant response rating.
2

Bedstraw plant response rating for `CC(C)N(C(=O)n1oc(=O)n([C@H](C)c2ccccc2)c1=O)c1ccc(Cl)cc1` ?
0

Which value of Bedstraw plant response rating has been reported for CCOC(=O)C(C)N(C(=O)n1oc(=O)n(-c2c(C)cccc2C)c1=O)c1ccc(F)cc1 (stereo not shown) in the records?
0

###

Examples of compounds with documented Sugarbeets plant response rating follow.
# System: sugar beet
# methodDescription: Test B pre/postemergence sugar beet
# Assay type: in vivo, Beta vulgaris
# measurementParameters: Postemergence, Rate 500 g/ha; scale of 0 to 10 where 0 is no effect and 10 is complete control
Keep the answer to the number alone.

compound: CC(C)N(C(=O)n1oc(=O)n(CCl)c1=O)c1ccc(F)cc1F
reportedValue: 0
//
compound: CC(C)N(C(=O)n1oc(=O)n(CC#N)c1=O)c1ccc(F)cc1F
reportedValue: 0

Item CC(C)N(C(=O)n1oc(=O)n(C(C)CCl)c1=O)c1ccccc1 (stereo not shown) has what recorded Sugarbeets plant response rating?
7

What value of Sugarbeets plant response rating has been recorded for this entry: `CC(C)N(C(=O)n1oc(=O)n(C)c1=O)c1ccccc1`
0

###

# Test system: sugar beet
# methodDescription: Test B pre/postemergence sugar beet
# Format: in vivo, Beta vulgaris
# measurementParameters: Preemergence, Rate 250 g/ha; scale of 0 to 10 where 0 is no effect and 10 is complete control
Values of Sugarbeets plant response rating strictly less than 6 map to yes, and values of at least 6 map to no.

Below are worked cases with known answers.
testSmiles: CC(C)N(C(=O)n1oc(=O)n(C2CC2)c1=O)c1ccccc1
label: no
//
testSmiles: CCC(CC)n1c(=O)on(C(=O)N(c2ccc(F)cc2F)C(C)C)c1=O
label: yes
//
testSmiles: Cc1ccccc1-n1c(=O)on(C(=O)N(c2ccncc2)C(C)C)c1=O
label: yes

Take the compound `CCC(=O)Cn1c(=O)on(C(=O)N(c2ccc(F)cc2)C(C)C)c1=O` and say whether its Sugarbeets plant response rating is less than 6.
yes

###

# System: pigweed
# methodDescription: Test B pre/postemergence pigweed
# Assay type: in vivo, Amaranthus retroflexus
# measurementParameters: Postemergence, Rate 62 g/ha; scale 0 to 10, 0 is no effect, 10 is complete control
assayMetric: Plant response rating, Redroot pigweed
Could you respond with only the numeric value?

Below, 3 compounds whose answers are already recorded.
testSmiles: CC(C)N(C(=O)n1oc(=O)n(CC(F)F)c1=O)c1ccc(F)cc1F
Plant response rating, Redroot pigweed: 3

testSmiles: C=C(Cn1c(=O)on(C(=O)N(c2ccccc2)C(C)C)c1=O)C(C)(C)C
Plant response rating, Redroot pigweed: 0

testSmiles: CC(C)N(C(=O)n1oc(=O)n(CNC(=O)c2ccccc2)c1=O)c1ccc(F)cc1F
Plant response rating, Redroot pigweed: 0

Field: Plant response rating, Redroot pigweed (pigweed). Entry: `CC(C)N(C(=O)n1oc(=O)n(CCCC#N)c1=O)c1ccccc1`
0

Request - read-out Plant response rating, Redroot pigweed | tested on pigweed | compound `CCCCCn1c(=O)on(C(=O)N(c2ccc(F)cc2F)C(C)C)c1=O`
0

Missing value: Plant response rating, Redroot pigweed, pigweed, entry `CC(C)N(C(=O)n1oc(=O)n(CC(=O)C2CCC2)c1=O)c1ccc(Cl)cc1` . Fill in?
0

# value lookup — system pigweed, readout Plant response rating, Redroot pigweed, item `CC(C)N(C(=O)n1oc(=O)n(CC(F)F)c1=O)c1ccccc1`
6

Write down the reported Plant response rating, Redroot pigweed of `CC[C@@H](C)n1c(=O)on(C(=O)N(c2ccc(Cl)cc2)C(C)C)c1=O` , test system: pigweed.
3
